molecular target: KRAS G12S (Homo sapiens, UniProt P01116+P62937, G12S); assay: Disruption of BRAF RBD interaction with Ras (FRET / MOA assay, with Cyclophilin A); type: biochemical; conditions: read-out: KRAS G12S FRET data, IC50
Sequence (P01116 1-169 isoform P01116-2 G12S limits assumed): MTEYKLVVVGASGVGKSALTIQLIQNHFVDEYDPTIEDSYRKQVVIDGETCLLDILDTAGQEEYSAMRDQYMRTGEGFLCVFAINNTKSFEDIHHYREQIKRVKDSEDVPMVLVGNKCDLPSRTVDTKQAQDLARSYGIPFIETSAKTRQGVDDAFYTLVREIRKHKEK
Sequence (P62937 whole entry): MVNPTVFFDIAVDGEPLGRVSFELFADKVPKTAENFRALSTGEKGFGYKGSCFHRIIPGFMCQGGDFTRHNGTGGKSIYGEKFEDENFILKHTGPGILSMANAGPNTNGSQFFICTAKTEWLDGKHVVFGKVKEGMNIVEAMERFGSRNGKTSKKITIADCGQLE
Recorded IC50 for the following compounds

Here are 8 compounds together with their reported answers.
| compound | experimental result |
| --- | --- |
| CCn1c(-c2cccnc2[C@H](C)OC)c2c3cc(ccc31)-c1csc(n1)C[C@H](NC(=O)[C@H](C(C)C)N(C)C(=O)N1C3CC1CN(C)C3)C(=O)N1CCC[C@H](N1)C(=O)OCC(C)(C)C2 | 0.1 to 1 µM |
| CCn1c(-c2cccnc2[C@H](C)OC)c2c3cc(ccc31)-c1csc(n1)C[C@H](NC(=O)[C@H](C(C)C)N(C)C(=O)N1CC(N3CCN(C)CC3)C1)C(=O)N1CCC[C@H](N1)C(=O)OCC(C)(C)C2 | 0.1 to 1 µM |
| CCn1c(-c2ccccc2CCOC)c2c3cc(ccc31)-c1cc(O)cc(c1)C[C@H](NC(=O)[C@H](C(C)C)N(C)C(=O)C1CCN(C(=O)/C=C/CN(C)C)CC1)C(=O)N1CCC[C@H](N1)C(=O)OCC(C)(C)C2 | 1 to 10 µM |
| CCn1c(-c2cccnc2[C@H](C)OC)c2c3cc(ccc31)-c1csc(n1)C[C@H](NC(=O)[C@@H](OC(=O)N1CC(N(C)C)C1)C(C)C)C(=O)N1CCC[C@H](N1)C(=O)OCC(C)(C)C2 | 1 to 10 µM |
| CCn1c(-c2cccnc2[C@H](C)OC)c2c3cc(ccc31)-c1cc(O)cc(c1)C[C@H](NC(=O)[C@H](C(C)C)N(C)C(=O)[C@H]1CCC[C@H]1N)C(=O)N1CCC[C@H](N1)C(=O)OCC(C)(C)C2 (atropisomer, axis not shown) | 0.01 to 0.1 µM |
| CCn1c(-c2cccnc2[C@H](C)OC)c2c3cc(ccc31)-c1csc(n1)C[C@H](NC(=O)[C@H](C(C)C)N(C)C(=O)N1CCC3(CN(C)C3)C1)C(=O)N1CCC[C@H](N1)C(=O)OCC(C)(C)C2 (atropisomer, axis not shown) | 0.01 to 0.1 µM |
| CCn1c(-c2cccnc2[C@H](C)OC)c2c3cc(ccc31)-c1csc(n1)C[C@H](NC(=O)[C@H](C(C)C)N(C)C(=O)N1CC([C@@H](C)N(C)C)C1)C(=O)N1CCC[C@H](N1)C(=O)OCC(C)(C)C2 (atropisomer, axis not shown) | 0.1 to 1 µM |
| CCn1c(-c2cccnc2[C@H](C)OC)c2c3cc(ccc31)-c1csc(n1)C[C@H](NC(=O)[C@H](C(C)C)N(C)C(=O)N1CCC3(CC1)CN(C)CCO3)C(=O)N1CCC[C@H](N1)C(=O)OCC(C)(C)C2 | 0.1 to 1 µM |

Field: next compound
// query Provide IC50, system KRAS G12S (Homo sapiens, UniProt P01116+P62937, G12S), entry C=CC(=O)N1CC[C@H](C(=O)N(C)[C@H](C(=O)N[C@H]2Cc3cccc(c3)-c3ccc4c(c3)c(c(-c3cc(CN(C)C)cnc3[C@H](C)OC)n4CC)CC(C)(C)COC(=O)[C@@H]3CCCN(N3)C2=O)C(C)C)C1
// result > 10 µM

* * *

Molecular target: KRAS G12D (Homo sapiens, UniProt P01116+P62937, G12D)
Sequence (P01116 1-169 isoform P01116-2 G12D limits assumed): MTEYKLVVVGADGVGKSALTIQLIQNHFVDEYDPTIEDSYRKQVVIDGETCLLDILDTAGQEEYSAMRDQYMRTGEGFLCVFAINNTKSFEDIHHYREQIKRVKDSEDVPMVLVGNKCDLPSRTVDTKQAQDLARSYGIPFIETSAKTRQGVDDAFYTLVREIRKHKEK
Sequence (P62937 whole entry): as the sequence (P62937 whole entry) above
Assay: Disruption of BRAF RBD interaction with Ras (FRET / MOA assay, with Cyclophilin A)
Assay type: biochemical
Settings: read-out: KRAS G12D FRET data, IC50
Description: This protocol may also be executed substituting other Ras proteins or nucleotides. The purpose of this biochemical assay was to measure the ability of test compounds to facilitate ternary complex formation between a nucleotide-loaded K-Ras isoform and Cyclophilin A; the resulting ternary complex disrupts binding to a BRAF^RBD construct, inhibiting K-Ras signaling through a RAF effector. Data is reported as IC50 values. […]
Recorded IC50 for the following compounds

// query Supply recorded IC50 for C=CC(=O)N1CC[C@H](C(=O)N(C)[C@H](C(=O)N[C@H]2Cc3cc(O)cc(c3)-c3ccc4c(c3)c(c(-c3ccc(CN5CC[C@@H](O)C5)cc3)n4CC)CC(C)(C)COC(=O)[C@@H]3CCCN(N3)C2=O)C(C)C)C1 here.
// result > 10 µM

// query Supply recorded IC50 for C=CC(=O)N1CC[C@H](C(=O)N(C)[C@H](C(=O)N[C@H]2Cc3cc(O)cc(c3)-c3ccc4c(c3)c(c(-c3cccnc3COCC)n4CC)CC(C)(C)COC(=O)[C@@H]3CCCN(N3)C2=O)C(C)C)C1 here.
// result 1 to 10 µM

// query Supply recorded IC50 for C=CC(=O)N1CC[C@H](C(=O)N(C)[C@H](C(=O)N[C@H]2Cc3cc(O)cc(c3)-c3ccc4c(c3)c(c(-c3cccc(CN(C)C)c3)n4CC)CC(C)(C)COC(=O)[C@@H]3CCCN(N3)C2=O)C(C)C)C1 here.
// result > 10 µM

// query Supply recorded IC50 for CC#CC(=O)N1CC[C@H](C(=O)N(C)[C@H](C(=O)N[C@H]2Cc3nc(cs3)-c3ccc4c(c3)c(c(-c3cccnc3[C@H](C)OC)n4CC)CC(C)(C)COC(=O)[C@@H]3CCCN(N3)C2=O)C(C)C)C1 here.
// result > 10 µM

* * *

Molecular target: KRAS G12C (Homo sapiens, UniProt P01116+P62937, G12C)
Sequence (P01116 1-169 isoform P01116-2 G12C limits assumed): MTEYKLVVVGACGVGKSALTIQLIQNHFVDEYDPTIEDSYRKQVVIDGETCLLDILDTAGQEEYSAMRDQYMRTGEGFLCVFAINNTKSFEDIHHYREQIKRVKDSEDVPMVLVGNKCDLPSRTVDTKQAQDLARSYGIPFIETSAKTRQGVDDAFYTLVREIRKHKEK
Sequence (P62937 whole entry): as the sequence (P62937 whole entry) above
Assay: Ras-Raf disruption / FRET / MOA assay (BRAF RBD)
Format: biochemical
Conditions: KRAS G12C FRET data IC50, Ras-Raf disruption, with Cyclophilin A
Text: Disruption of […] Ras-binding Domain (BRAF^RBD) Interaction with K-Ras by Compounds of the Invention (also Called a FRET Assay or an MOA Assay) Note—The following protocol describes a procedure for monitoring disruption of K-Ras G12C (GMP-PNP) binding to BRAF^RBD by a compound of the invention. This protocol may also be executed substituting other Ras proteins or nucleotides, such as K-Ras G12D and K-Ras G13D. […]
recorded metric: IC50

Here are 3 compounds together with their reported answers.
| compound | target of assay | experimental result |
| --- | --- | --- |
| CCn1c(-c2cc(N3CCN(C)CC3)cnc2[C@H](C)OC)c2c3cc(ccc31)-c1cc(O)cc(c1)C[C@H](NC(=O)[C@H](C1CCCC1)N(C)C(=O)CN(C)C(=O)[C@@H]1N[C@@H]1C1CC1)C(=O)N1CCC[C@H](N1)C(=O)OCC(C)(C)C2 [Example 325] | KRAS G12C (Homo sapiens, UniProt P01116+P62937, G12C) | < 10 nM |
| CCn1c(-c2cccnc2[C@H](C)OC)c2c3cc(ccc31)-c1cc(O)cc(c1)C[C@H](NC(=O)[C@H](C1CCCC1)N(C)C(=O)CN(C)C(=O)[C@@H]1N[C@@H]1C1(F)CC1)C(=O)N1CCC[C@H](N1)C(=O)OCC(C)(C)C2 [Example 314] | KRAS G12C (Homo sapiens, UniProt P01116+P62937, G12C) | 10 to 100 nM |
| CCn1c(-c2cccnc2[C@H](C)OC)c2c3cc(ccc31)-c1cc(O)cc(c1)C[C@H](NC(=O)[C@H](C(C)C)N(C)C(=O)CN(C)C(=O)[C@H]1CN1C(C)C)C(=O)N1CCC[C@H](N1)C(=O)OCC(C)(C)C2 (stereo partly shown) [Example 142] | KRAS G12C (Homo sapiens, UniProt P01116+P62937, G12C) | < 10 nM |

// query Supply recorded IC50 for CCn1c(-c2cccnc2[C@H](C)OC)c2c3cc(ccc31)-c1cc(O)cc(c1)C[C@H](NC(=O)[C@H](C(C)C)N(C)C(=O)CN(C)C(=O)[C@@H]1CN1CC(=O)N(C)C)C(=O)N1CCC[C@H](N1)C(=O)OCC(C)(C)C2 (stereo partly shown) [Example 271] here.
// result < 10 nM

// query Supply recorded IC50 for CCn1c(-c2cccnc2[C@H](C)OC)c2c3cc(ccc31)-c1cc(O)cc(c1)C[C@H](NC(=O)[C@H](C(C)C)N(C)C(=O)CN(C)C(=O)[C@@H]1N[C@@H]1C(F)(F)F)C(=O)N1CCC[C@H](N1)C(=O)OCC(C)(C)C2 [Example 258] here.
// result 10 to 100 nM

// query Supply recorded IC50 for CCn1c(-c2cccnc2[C@H](C)OC)c2c3cc(ccc31)-c1cc(O)cc(c1)C[C@H](NC(=O)[C@H](C(C)C)N(C)C(=O)CN(C)C(=O)[C@@H]1CN1CCCOC)C(=O)N1CCC[C@H](N1)C(=O)OCC(C)(C)C2 (stereo partly shown) [Example 137] here.
// result < 10 nM

// query Supply recorded IC50 for CCn1c(-c2cccnc2[C@H](C)OC)c2c3cc(ccc31)-c1cc(O)cc(c1)C[C@H](NC(=O)[C@H](C(C)C)N(C)C(=O)CN(C)C(=O)[C@H]1CN1CC1(C)COC1)C(=O)N1CCC[C@H](N1)C(=O)OCC(C)(C)C2 (stereo partly shown) [Example 279] here.
// result 10 to 100 nM
